Listed here are molecules together with their documented Growth Rate.
test system: U2OS; experiment: Incucyte cell viability with U2OS; type: toxicity, cell-based; settings: human, 24 h, 10 µM, compound concentration 10 uM, replicate number 2; note: unitless GR value; below 1 slowed growth and below 0 cell loss

Here is how some molecules turned out for Growth Rate.
Cc1cc(C)c(CNC(=O)c2cc(Cl)c3c(c2C)O[C@@](C)([C@H]2CC[C@H](N(C)C)CC2)O3)c(=O)[nH]1 | 0.98
CC#C[C@]1(O)CC[C@H]2[C@@H]3CCC4=CC(=O)CCC4=C3[C@@H](c3ccc(N(C)C)cc3)C[C@@]21C | 0.66
CNC(=O)c1cc(Nc2ccnc(Nc3ccc(CCNC(=O)OC(C)(C)C)cc3)n2)[nH]n1 | 0.79
O=C(COc1ccc(-c2oc3cc(O)c(C(=O)O)cc3c2C#Cc2cccc(Cl)c2)cc1)NC1CC1 | 0.84
CC/C(=C(/CC)c1ccc(O)cc1)c1ccc(O)cc1 | 0.74

(Q) Any idea what its Growth Rate is? The molecule is COc1ccc2nc3[nH]nc(C)c3c(NCCOCCO)c2c1
(A) 1

(Q) Any idea what its Growth Rate is? The molecule is C[C@]12O[C@H](C[C@]1(O)CO)n1c3ccccc3c3c4c(c5c6ccccc6n2c5c31)CNC4=O
(A) 0.46

(Q) Any idea what its Growth Rate is? The molecule is C[C@H](NC(=O)c1cn(C2(C#N)CC2)cn1)C(=O)Nc1nc(-c2cccc(-c3ccn(C)n3)c2)cs1
(A) 1

###

test system: Fibroblast; assay: Incucyte cell viability with human fibroblast; type: toxicity, cell-based; details: 24 h, 10 µM, compound concentration 10 uM, replicate number 1; note: unitless GR value; below 1 slowed growth and below 0 cell loss
Listed here are compounds together with their documented Growth Rate.

O=C(NC[C@H](O)CN1CCc2ccccc2C1)c1cc(NC2COC2)ncn1 | 1

(Q) Any idea what its Growth Rate is? The compound is CCCCN(Cc1ccc(C(=O)NO)cc1)C(=O)Nc1ccccc1
(A) 1

(Q) Any idea what its Growth Rate is? The compound is CCN(c1cc(-c2ccc(CN3CCOCC3)cc2)cc(C(=O)NCc2c(C)cc(C)[nH]c2=O)c1C)C1CCOCC1
(A) 0.54

(Q) Any idea what its Growth Rate is? The compound is Cl.Cl.O=C(O)Cn1nnc(-c2ccc(CN(CCCCOc3ccc(CN4CCCC4)cc3)CCc3ccccc3)cc2)n1
(A) 0.66

###

Listed here are molecules together with their documented Growth Rate.
tested on: HEK-293T; assay: Incucyte cell viability with HEK293T; type: toxicity, cell-based; conditions: human, 24 h, 10 µM, compound concentration 10 uM, replicate number 2; note: unitless GR value; below 1 slowed growth and below 0 cell loss
// print number alone

Here is how some molecules turned out for Growth Rate.
CN1CCc2c(n(Cc3ccc(C(=O)NO)cc3)c3ccccc23)C1 | 1
Cc1nc(F)ccc1-c1cc(Cn2ccn(C)c2=N)cc(C(=O)NCc2ccc(Cl)c(Cl)c2)c1.O=C(O)C(F)(F)F | 0.95
[2H]C([2H])([2H])C1(C([2H])([2H])[2H])Cn2nc(-c3ccc(F)cn3)c(-c3ccnc4[nH]ncc34)c2CO1 | 0.89
CCOC(=O)NCCCC(=O)NCCc1ccccc1 | 0.8

(Q) Any idea what its Growth Rate is? The molecule is CCCN1CCN(c2ccc(C(=O)NC3(C(=O)NCC#N)CCCCC3)cc2)CC1 [BALICATIB]
(A) 0.95

(Q) Any idea what its Growth Rate is? The molecule is N[C@@H](CC(=O)N1CCN(C(c2ccc(F)cc2)c2ccc(F)cc2)CC1)C(=O)N1Cc2ccccc2C1
(A) 0.87

(Q) Any idea what its Growth Rate is? The molecule is Nc1ncnc2c1ncn2[C@@H]1O[C@H](C[C@@H](N)CC[C@H](N)C(=O)O)[C@@H](O)[C@H]1O [SINEFUNGIN]
(A) 0.88

(Q) Any idea what its Growth Rate is? The molecule is Nc1nc2cc(CC[C@H]3C[C@@H](n4ccc5c(N)ncnc54)[C@H](O)[C@@H]3O)ccc2cc1Br [ONAMETOSTAT]
(A) -0.01
